Let's look at some compounds and their measured viability, T/C.
- Test system: 126254-015-R-J1-PDC complex spheroid growth, % test/control
- Protocol Details: Anticancer human tumor 126254-015-R-J1-PDC patient-derived soft tissue sarcoma cell line growth inhibition [Asc]
- Experimental Setup: second compound 0.0949 µM; first compound 0.1 µM; stronger effect = lower value
Please respond with the number in % and leave the unit unwritten.

# example entries with known answers
C=C(F)C(=O)N1CCN(c2nc(OCC3CCCN3C)nc3c2CCN(c2cccc4cccc(Cl)c24)C3)CC1CC#N (stereo not given) + CCN1C(C(=O)NC23CCC(C(=O)O)(CC2)CC3)C(c2cccc(Cl)c2F)C2(C(=O)Nc3cc(Cl)ccc32)C12CCCCC2
104
O=C(c1ccc(F)c(F)c1Nc1ccc(I)cc1F)N1CC(O)([C@@H]2CCCCN2)C1 + CCN1C(C(=O)NC23CCC(C(=O)O)(CC2)CC3)C(c2cccc(Cl)c2F)C2(C(=O)Nc3cc(Cl)ccc32)C12CCCCC2
97.8

Ask: Consider the compound C#Cc1c(F)ccc2cc(O)cc(-c3ncc4c(N5CC6CCC(C5)N6)nc(OCC56CCCN5CC(F)C6)nc4c3F)c12 (stereo not given) + CCN1C(C(=O)NC23CCC(C(=O)O)(CC2)CC3)C(c2cccc(Cl)c2F)C2(C(=O)Nc3cc(Cl)ccc32)C12CCCCC2 and give its measured viability, T/C.
Result: 95.3

Ask: Consider the compound CCN1CCN(Cc2ccc(Nc3ncc(F)c(-c4cc(F)c5nc(C)n(C(C)C)c5c4)n3)nc2)CC1 + CCN1C(C(=O)NC23CCC(C(=O)O)(CC2)CC3)C(c2cccc(Cl)c2F)C2(C(=O)Nc3cc(Cl)ccc32)C12CCCCC2 and give its measured viability, T/C.
Result: 102

Ask: Consider the compound COc1c(OCCCN2CCOCC2)ccc2c3n(c(=NC(=O)c4cnc(N)nc4)nc12)CCN3 + CCN1C(C(=O)NC23CCC(C(=O)O)(CC2)CC3)C(c2cccc(Cl)c2F)C2(C(=O)Nc3cc(Cl)ccc32)C12CCCCC2 and give its measured viability, T/C.
Result: 25.8

====

Let's look at some molecules and their measured viability, T/C.
- System: 126254-015-R-J1-PDC complex spheroid growth, % test/control
- Protocol Details: Anticancer human tumor 126254-015-R-J1-PDC cell line growth inhibition [Asc];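 further: spheroids exposed to compound for seven days; 100% = DMSO vehicle control wells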
- Experimental Setup: second compound 1 µM; first compound 0.1 µM; stronger effect = lower value
- From the text: Multicellular complex tumor spheroid response to apoptosis pathway targeting inhibitors Alrizomadlin, Pelcitoclax, and Dasminapant in combination with a variety of drugs and investigational agents in selected tumor cell lines […] Compounds. […] If the clinical Cmax for an agent had not been determined, the highest concentration tested was 10 microM. […]
Please respond with the number in % and leave the unit unwritten.

O=C(c1cc(Cc2n[nH]c(=O)c3ccccc23)ccc1F)N1CCN(C(=O)C2CC2)CC1 + CNC(C)C(=O)NC1CN(S(=O)(=O)c2cccc(S(=O)(=O)N3CCC4CCC(C(=O)NC(c5ccccc5)c5ccccc5)N4C(=O)C(NC(=O)C(C)NC)C3)c2)CCC2CCC(C(=O)NC(c3ccccc3)c3ccccc3)N2C1=O
62.2

Ask: Consider the molecule NC1CCC(NC2CC2c2ccccc2)CC1 (configuration not stated) + Cc1c(S(C)(=O)=O)c(-c2cc(F)cc(N3CCN(c4ccc(NS(=O)(=O)c5ccc(NC(CCN6CCC(C(=O)OCCCP(=O)(O)O)CC6)CSc6ccccc6)c(S(=O)(=O)C(F)(F)F)c5)cc4)CC3)c2)c(-c2ccc(Cl)cc2)n1C(C)C and give its measured viability, T/C.
Result: 60.3
